# Tested on: A549
# procedure_summary: NCI tumour cell line growth inhibition, 48 h
Calls of active or inactive are those of the source. Rule as the data show it: active = GI50 up to about 1.1 µM and inactive = higher.
test_readout: GI50

Form: Entry = Cc1c(C(=O)/C=C/c2c(Cl)cccc2Cl)c(=O)n(-c2ccccc2)n1C | System = A549 | GI50 = ____ 15.1 µM (inactive)

A549 / GI50 / C=C1C(=O)OC2C1CCC(=C)C1CC(O)C(=C)C12 (stereo unspecified) : value? 23.8 µM (inactive)

Please tell me: GI50 of COc1nc(N)c(N=O)c(OCc2ccccc2)n1 , system A549? > 10 µM (inactive)

Item: CN(C)CCCN1C(=O)N(CCCN(C)C)c2c3cc(O)ccc3nc3c([N+](=O)[O-])ccc1c23 Test system: A549 Read-out: GI50 Value: ? 13.6 µM (inactive)

State its GI50 on A549: CC1CCC(=O)C(C(O)CC2CC(=O)N(c3ccccc3)C(=O)C2)C1 (stereo unspecified) > 100 µM (inactive)

Recall the recorded GI50 for CN1N=C(c2ccncc2)OC1c1ccc(Cl)cc1Cl (stereo unspecified) with A549 and state it. > 100 µM (inactive)

Provide value of GI50 for this record tested with A549: Cc1cc(O)nc(NNC(C#N)c2ccc(O)cc2)n1 (stereo unspecified) > 100 µM (inactive)

// lookup GI50 | system=A549 | key= c1csc(-c2cc(-c3cccs3)c(-c3cccs3)s2)c1 > 100 µM (inactive)

Record C=C1c2nc3ccccc3n2C=C(c2ccc(Cl)cc2)N1c1ccc(OC)cc1 : what is its GI50 with A549? 10.9 µM (inactive)

Item: C=C(Br)CN(C)CC(=C)Br Test system: A549 Read-out: GI50 Value: ? > 100 µM (inactive)

Recall the recorded GI50 for CC(=O)C1(/N=N/c2ccc(S(N)(=O)=O)cc2)CCOC1=O (stereo unspecified) with A549 and state it. > 100 µM (inactive)

====

# System: HOP-62
# procedure_summary: NCI tumour cell line growth inhibition, 48 h
Calls of active or inactive are those of the source. No stated cut-off is given here; in the data, active = GI50 up to about 1.1 µM and inactive = higher.
Would you mind answering with one of these outcomes? 1 for active, 0 for inactive

Which outcome was entered for the molecule COc1ccc(-c2oc3cc(-c4cc5oc(-c6ccc(OC)cc6)c(-c6ccc(OC)cc6)c5cc4OC)c(OC)cc3c2-c2ccc(OC)cc2)cc1 in this test? 0

Outcome? Cc1ccc2c(C)c3ccc4ccccc4c3c[n+]2c1.[O-][Cl+3]([O-])([O-])[O-] 0

Please indicate how the test categorized CC(=O)OC12C=CC(=O)N1c1ccccc1C(=O)O2 (stereo not given) . 0

What did this assay record as the result for COc1nc(N=P(c2ccccc2)(c2ccccc2)c2ccccc2)cc(=O)[nH]1 ? 0

Could you kindly confirm the outcome this assay logged for CCN(CC)CCNc1ccc(C)c2sc3ccc(O)cc3c(=O)c12 ? 1

# fetch the recorded call for Cc1n[nH]c(=O)n1/N=C\CC/C=N\n1c(C)n[nH]c1=O here 0

Test call, this molecule: O=C1NC(=S)N/C1=C\c1cccs1 0

Please share the test call associated with COc1cccc(CCn2c(N)c(C#N)c3ccc([N+](=O)[O-])cc3c2=O)c1 . 0

Any idea what this test logged for O=C(Nc1nc2c(=O)[nH]cnc2s1)c1ccccc1 ? 0

I would be grateful if you could indicate the recorded call for Cc1ccc(S(=O)(=O)NC2(C=O)CCCC3CCCCC32)cc1 (stereo not given) . 0
